Hi there, I'd appreciate the recorded MIC for every entry that follows.
System: EC882 E. coli imp
Protocol summary: broth dilution MIC, E. coli EC882
Type: cell-based
Run conditions: Escherichia coli

Ask: Provide MIC value for the following molecule: CC[C@H]1OC(=O)[C@H](C)C(=O)C[C@@H](O[C@@H]2OC(C)CC(N(C)C)C2O)[C@@](C)(OC)C[C@@H](C)CN[C@H](C)[C@H]2N(CCCCn3cc(-c4cccc(N)c4)nn3)C(=O)O[C@]12C (stereo partly drawn)
Reply: > 32 µg/mL

Ask: Consider the molecule CC[C@H]1OC(=O)[C@H](C)C(=O)C[C@@H](O[C@@H]2OC(C)CC(N(C)C)C2O)[C@@](C)(OC)C[C@@H](C)CN(C(C)=O)[C@H](C)[C@H]2N(CCCCn3cc(-c4nc5ccccc5s4)nn3)C(=O)O[C@]12C (stereo partly drawn) . State its measured MIC.
Reply: > 32 µg/mL

Ask: Retrieve MIC measured for CC[C@H]1OC(=O)[C@H](C)C(=O)C[C@@H](O[C@@H]2OC(C)CC(N(C)C)C2O)[C@@](C)(OC)C[C@@H](C)CN[C@H](C)[C@H]2N(CCCCn3cc(-c4nccs4)nn3)C(=O)O[C@]12C (stereo partly drawn) and print it.
Reply: > 32 µg/mL

Ask: Name the recorded MIC of the item CC[C@H]1OC(=O)C(C)(F)C(=O)[C@@H](C)[C@@H](O[C@@H]2OC(C)CC(N(C)C)C2O)[C@](C)(OC)C[C@@H](C)CN[C@H](C)[C@H]2N(CCCCn3cc(-c4cccc(N)n4)nn3)C(=O)O[C@]12C (stereo partly drawn) in your answer.
Reply: 0.125 µg/mL

Ask: Supply measured MIC of CC[C@H]1OC(=O)C(C)(F)C(=O)[C@@H](C)[C@@H](O[C@@H]2OC(C)CC(N(C)C)C2O)[C@](C)(OC)C[C@@H](C)CN[C@H](C)[C@H]2N(CCCCn3cc(-c4nccs4)nn3)C(=O)O[C@]12C (stereo partly drawn) in your reply.
Reply: 0.25 µg/mL

Ask: Query MIC for CC[C@H]1OC(=O)[C@H](C)C(=O)C[C@@H](O[C@@H]2OC(C)CC(N(C)C)C2O)[C@](C)(OC)C[C@@H](C)CN[C@H](C)[C@H]2N(CCCCn3cc(-c4nccs4)nn3)C(=O)O[C@]12C (stereo partly drawn)
Reply: 0.125 µg/mL

----------
Hi there, I'd appreciate the recorded MIC for every entry that follows.

Ask: Specify MIC for CC[C@H]1OC(=O)[C@H](C)[C@@H](O[C@H]2C[C@@](C)(OC)[C@@H](O)[C@H](C)O2)[C@H](C)[C@@H](O[C@@H]2O[C@H](C)C[C@H](N(C)C)[C@H]2O)[C@](C)(O)C[C@@H](C)CN(C)[C@H](C)[C@@H](O)[C@]1(C)O [Azithromycin, reference compound] , system SA1708 S. aureus ermA positive msrA negative.
Reply: > 32 µg/mL

Ask: // output MIC; input CC[C@H]1OC(=O)[C@H](C)C(=O)[C@H](C)[C@@H](O[C@@H]2OC(C)CC(N(C)C)C2O)[C@](C)(OC)C[C@@H](C)CN[C@H](C)[C@H]2N(CCCCn3cc(-c4cccc(N)c4)nn3)C(=O)O[C@]12C (stereo partly shown) ; system SA1708 S. aureus ermA positive msrA negative
Reply: 1 to 2 µg/mL

Ask: State measured MIC of the compound CC[C@H]1OC(=O)[C@H](C)C(=O)C[C@@H](O[C@@H]2OC(C)CC(N(C)C)C2O)[C@](C)(OC)C[C@@H](C)C(=O)N[C@H](C)[C@H]2N(CCCCn3cc(-c4ccccn4)nn3)C(=O)O[C@]12C (stereo partly shown) with SA1708 S. aureus ermA positive msrA negative.
Reply: > 32 µg/mL

Ask: Lab note: SA1708 S. aureus ermA positive msrA negative assay, enter MIC for CC[C@H]1OC(=O)[C@H](C)C(=O)[C@H](C)[C@@H](O[C@@H]2OC(C)CC(N(C)C)C2O)[C@](C)(OC)C[C@@H](C)C(=O)N[C@H](C)[C@H]2N(CCCCn3cc(-c4ccccn4)nn3)C(=O)O[C@]12C (stereo partly shown) here
Reply: > 32 µg/mL
